binders and their reported pEC50
TEST TARGET: T1, human Trop-2-His protein (human, UniProt P09758 27-274)
T1 construct: extracellular domain; Assay paragraphs say only 'Trop-2-His'; also called hTrop-2; Kactus Cat #TRP-HM121; not shown: His tag
T1 sequence (looked up): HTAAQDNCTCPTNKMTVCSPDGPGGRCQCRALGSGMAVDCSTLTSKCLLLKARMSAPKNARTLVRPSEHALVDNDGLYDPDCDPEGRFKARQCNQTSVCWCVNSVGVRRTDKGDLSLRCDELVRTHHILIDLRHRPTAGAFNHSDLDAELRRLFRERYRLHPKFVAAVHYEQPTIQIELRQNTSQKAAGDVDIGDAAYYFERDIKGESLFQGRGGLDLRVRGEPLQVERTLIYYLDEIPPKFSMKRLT
ASSAY METHOD TEXT: ELISA, coated Trop-2 protein
Please keep in mind that pEC50 is minus log10 of the molar concentration; only the number is needed.

Some entries whose results are on file:
stdin: I am curious: what pEC50 value has been reported for Sacituzumab govitecan (antibody, INN chains, looked up, V domains shown, SN-38 payload (govitecan)) VH: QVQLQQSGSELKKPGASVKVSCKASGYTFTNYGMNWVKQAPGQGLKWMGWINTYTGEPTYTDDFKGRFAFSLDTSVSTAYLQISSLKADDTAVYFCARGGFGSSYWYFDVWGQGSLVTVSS VL: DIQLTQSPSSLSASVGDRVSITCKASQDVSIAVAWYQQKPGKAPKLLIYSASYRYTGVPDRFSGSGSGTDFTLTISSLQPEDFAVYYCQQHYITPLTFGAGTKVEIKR ?
stdout: 10.85

stdin: For the binder shown here, 1D10 (antibody, V domains shown, Rabbit-derived clone; LEM construct: VH + rabbit IgG CH1 + human IgG1 CH2-CH3) VH: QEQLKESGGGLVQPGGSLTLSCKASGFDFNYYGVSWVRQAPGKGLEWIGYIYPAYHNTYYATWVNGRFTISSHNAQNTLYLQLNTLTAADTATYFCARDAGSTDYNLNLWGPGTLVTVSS VL: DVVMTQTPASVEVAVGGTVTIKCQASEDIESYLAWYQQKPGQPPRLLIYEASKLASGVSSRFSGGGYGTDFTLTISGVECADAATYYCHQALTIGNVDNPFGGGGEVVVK , give the reported pEC50.
stdout: 10.80

stdin: Which pEC50 reading was recorded for the binder 63H3 (antibody, V domains shown, Rabbit-derived clone; LEM construct: VH + rabbit IgG CH1 + human IgG1 CH2-CH3) VH: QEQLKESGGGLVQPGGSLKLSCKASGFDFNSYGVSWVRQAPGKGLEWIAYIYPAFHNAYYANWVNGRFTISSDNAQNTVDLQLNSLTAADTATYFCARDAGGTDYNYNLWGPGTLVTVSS VL: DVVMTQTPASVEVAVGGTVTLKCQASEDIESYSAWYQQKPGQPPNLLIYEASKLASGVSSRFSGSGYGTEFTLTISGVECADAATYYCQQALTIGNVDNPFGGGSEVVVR ?
stdout: 10.54

stdin: If you can, please state the reported pEC50 value of 9F7 (antibody, V domains shown, Rabbit-derived clone; LEM construct: VH + rabbit IgG CH1 + human IgG1 CH2-CH3) VH: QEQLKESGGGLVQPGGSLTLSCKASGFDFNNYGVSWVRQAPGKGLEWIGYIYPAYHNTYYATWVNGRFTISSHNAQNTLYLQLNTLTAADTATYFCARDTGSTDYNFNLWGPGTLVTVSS VL: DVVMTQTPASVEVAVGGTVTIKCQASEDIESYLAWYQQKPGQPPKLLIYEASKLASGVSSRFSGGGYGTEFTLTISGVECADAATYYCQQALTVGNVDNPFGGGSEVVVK .
stdout: 10.48

Attention now turns to another entry.
stdin: # input binder: 9D7-2 (antibody, V domains shown) VH: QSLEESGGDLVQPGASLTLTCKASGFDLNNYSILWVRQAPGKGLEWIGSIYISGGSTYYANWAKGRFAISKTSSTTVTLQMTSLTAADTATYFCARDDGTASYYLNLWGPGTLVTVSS VL: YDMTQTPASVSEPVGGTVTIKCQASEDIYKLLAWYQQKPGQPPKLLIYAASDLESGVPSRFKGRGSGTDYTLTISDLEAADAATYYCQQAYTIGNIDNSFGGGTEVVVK ; wanted: its pEC50
stdout: 10.70

Hello, the source for this data is patent US20250206841A1, in case you need it.
